tested on: PBMC from normal individuals; assay: In vitro T cell proliferative responses of human PBMC ([3H]thymidine incorporation); type: cell-based; settings: 3rd Stimulation, donor X162
Consider the cut-off 2. If the recorded X162 S.I. is strictly smaller, the label is Criterion met; if not, the label is Criterion not met.

• CC(C)C[C@H](NC(=O)[C@@H](NC(=O)[C@H](Cc1c[nH]cn1)NC(=O)[C@H](C)NC(=O)[C@H](C)NC(=O)[C@@H](NC(=O)[C@H](CC1CCCCC1)NC(=O)[C@H](CCCCN)NC(=O)[C@@H](C)N)C(C)C)[C@@H](C)O)C(=O)N[C@@H](CCCCN)C(=O)N[C@@H](C)C(=O)N[C@@H](C)C(=O)N[C@H](C)C(N)=O = Criterion met
• CC(C)C[C@H](NC(=O)[C@@H](NC(=O)[C@H](Cc1ccc(O)cc1)NC(=O)[C@H](C)NC(=O)[C@H](C)NC(=O)[C@@H](NC(=O)[C@H](CC1CCCCC1)NC(=O)[C@H](CCCCN)NC(=O)[C@@H](C)N)C(C)C)[C@@H](C)O)C(=O)N[C@@H](CCCCN)C(=O)N[C@@H](C)C(=O)N[C@@H](C)C(=O)N[C@H](C)C(N)=O = Criterion not met
• CC(C)C[C@H](NC(=O)[C@@H](NC(=O)[C@H](CCCCN)NC(=O)[C@H](C)NC(=O)[C@H](C)NC(=O)[C@@H](NC(=O)[C@H](CC1CCCCC1)NC(=O)[C@H](CCCCN)NC(=O)[C@@H](C)N)C(C)C)[C@@H](C)O)C(=O)N[C@@H](CCCCN)C(=O)N[C@@H](C)C(=O)N[C@@H](C)C(=O)N[C@H](C)C(N)=O = Criterion met
• CC(C)C[C@H](NC(=O)[C@@H](NC(=O)[C@H](Cc1c[nH]c2ccccc12)NC(=O)[C@H](C)NC(=O)[C@H](C)NC(=O)[C@@H](NC(=O)[C@H](CC1CCCCC1)NC(=O)[C@H](CCCCN)NC(=O)[C@H](C)N)C(C)C)[C@@H](C)O)C(=O)N[C@@H](CCCCN)C(=O)N[C@@H](C)C(=O)N[C@@H](C)C(=O)N[C@@H](C)C(N)=O = Criterion not met

Next compound, please.
Asked: For this compound, is X162 S.I. lower than 2? `CC(C)C[C@H](NC(=O)[C@@H](NC(=O)[C@H](C)NC(=O)[C@H](C)NC(=O)[C@H](C)NC(=O)[C@@H](NC(=O)[C@H](CC1CCCCC1)NC(=O)[C@H](CCCCN)NC(=O)[C@@H](C)N)C(C)C)[C@@H](C)O)C(=O)N[C@@H](CCCCN)C(=O)N[C@@H](C)C(=O)N[C@@H](C)C(=O)N[C@H](C)C(N)=O`
Given back: Criterion met

====

tested on: PBMC from normal individuals; assay: In vitro T cell proliferative responses of human PBMC ([3H]thymidine incorporation); format: cell-based; conditions: 3rd Stimulation, donor X349
property.label: X349 S.I.
Give only the figure.

• CC(C)C[C@H](NC(=O)[C@@H](NC(=O)[C@H](CC(N)=O)NC(=O)[C@H](C)NC(=O)[C@H](C)NC(=O)[C@@H](NC(=O)[C@H](CC1CCCCC1)NC(=O)[C@H](CCCCN)NC(=O)[C@@H](C)N)C(C)C)[C@@H](C)O)C(=O)N[C@@H](CCCCN)C(=O)N[C@@H](C)C(=O)N[C@@H](C)C(=O)N[C@H](C)C(N)=O [965.08] = 2.8

Now for the compound whose X349 S.I. we want.
Asked: Reported X349 S.I., compound CC(C)C[C@H](NC(=O)[C@@H](NC(=O)[C@H](Cc1ccc(O)cc1)NC(=O)[C@H](C)NC(=O)[C@H](C)NC(=O)[C@@H](NC(=O)[C@H](CC1CCCCC1)NC(=O)[C@H](CCCCN)NC(=O)[C@@H](C)N)C(C)C)[C@@H](C)O)C(=O)N[C@@H](CCCCN)C(=O)N[C@@H](C)C(=O)N[C@@H](C)C(=O)N[C@H](C)C(N)=O [965.09] : ____
Given back: 5.5

====

biological target: DRw53 (Homo sapiens, UniProt P01903+P13762); test: biochemical
Sequence (P01903 26-254): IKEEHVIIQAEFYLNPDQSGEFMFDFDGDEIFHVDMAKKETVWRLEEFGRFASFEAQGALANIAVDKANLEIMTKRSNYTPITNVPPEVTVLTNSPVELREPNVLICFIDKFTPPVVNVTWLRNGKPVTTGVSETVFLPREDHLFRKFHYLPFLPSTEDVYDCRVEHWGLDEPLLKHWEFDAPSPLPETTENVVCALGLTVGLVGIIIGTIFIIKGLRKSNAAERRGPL
Sequence (P13762 30-266): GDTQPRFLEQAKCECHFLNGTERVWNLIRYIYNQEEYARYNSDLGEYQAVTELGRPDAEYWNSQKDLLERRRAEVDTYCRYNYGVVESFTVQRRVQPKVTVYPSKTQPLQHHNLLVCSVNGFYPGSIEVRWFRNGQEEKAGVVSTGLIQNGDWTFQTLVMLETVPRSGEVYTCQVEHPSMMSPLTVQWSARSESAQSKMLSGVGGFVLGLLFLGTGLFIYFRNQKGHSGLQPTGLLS
property.label: IC50 (nM)
API: value field is a number in nM; no unit string.

Asked: Reported IC50, compound `CC(C)C[C@H](NC(=O)[C@@H](NC(=O)[C@H](Cc1c[nH]cn1)NC(=O)[C@H](C)NC(=O)[C@H](C)NC(=O)[C@@H](NC(=O)[C@H](CC1CCCCC1)NC(=O)[C@H](CCCCN)NC(=O)[C@@H](C)N)C(C)C)[C@@H](C)O)C(=O)N[C@@H](CCCCN)C(=O)N[C@@H](C)C(=O)N[C@@H](C)C(=O)N[C@H](C)C(N)=O` : ____
Given back: 79.2

====

tested on: DR2w2b; design: species or system human; conditions: read-out: Binding Activity DR2wB2, IC50
property.label: IC50 (nM)
API: value field is a number in nM; no unit string.

• CC(C)C[C@H](NC(=O)[C@@H](NC(=O)[C@H](Cc1c[nH]c2ccccc12)NC(=O)[C@H](C)NC(=O)[C@H](C)NC(=O)[C@@H](NC(=O)[C@H](CC1CCCCC1)NC(=O)[C@H](CCCCN)NC(=O)[C@H](C)N)C(C)C)[C@@H](C)O)C(=O)N[C@@H](CCCCN)C(=O)N[C@@H](C)C(=O)N[C@@H](C)C(=O)N[C@@H](C)C(N)=O = 5.9
• CC(C)C[C@H](NC(=O)[C@@H](NC(=O)[C@H](Cc1c[nH]cn1)NC(=O)[C@H](C)NC(=O)[C@H](C)NC(=O)[C@@H](NC(=O)[C@H](CC1CCCCC1)NC(=O)[C@H](CCCCN)NC(=O)[C@@H](C)N)C(C)C)[C@@H](C)O)C(=O)N[C@@H](CCCCN)C(=O)N[C@@H](C)C(=O)N[C@@H](C)C(=O)N[C@H](C)C(N)=O = 5.4
• CC(C)C[C@H](NC(=O)[C@@H](NC(=O)[C@H](C)NC(=O)[C@H](C)NC(=O)[C@H](C)NC(=O)[C@@H](NC(=O)[C@H](CC1CCCCC1)NC(=O)[C@H](CCCCN)NC(=O)[C@@H](C)N)C(C)C)[C@@H](C)O)C(=O)N[C@@H](CCCCN)C(=O)N[C@@H](C)C(=O)N[C@@H](C)C(=O)N[C@H](C)C(N)=O = 6.1

Now for the compound whose IC50 we want.
Asked: Form: Entry = `CC(C)C[C@H](NC(=O)[C@@H](NC(=O)[C@H](Cc1c[nH]c2ccccc12)NC(=O)[C@H](C)NC(=O)[C@H](C)NC(=O)[C@@H](NC(=O)[C@H](CC1CCCCC1)NC(=O)[C@H](CCCCN)NC(=O)[C@@H](C)N)C(C)C)[C@@H](C)O)C(=O)N[C@@H](CCCCN)C(=O)N[C@@H](C)C(=O)N[C@@H](C)C(=O)N[C@H](C)C(N)=O` | System = DR2w2b | IC50 = ____
Given back: 5.6

====

test system: PBMC from normal individuals; experiment: In vitro T cell proliferative responses of human PBMC ([3H]thymidine incorporation); assay type: cell-based; details: 3rd Stimulation, donor X349
// label = y if X349 S.I. is not less than 2, otherwise n

* CC(C)C[C@H](NC(=O)[C@@H](NC(=O)[C@H](Cc1c[nH]c2ccccc12)NC(=O)[C@H](C)NC(=O)[C@H](C)NC(=O)[C@@H](NC(=O)[C@H](CC1CCCCC1)NC(=O)[C@H](CCCCN)NC(=O)[C@H](C)N)C(C)C)[C@@H](C)O)C(=O)N[C@@H](CCCCN)C(=O)N[C@@H](C)C(=O)N[C@@H](C)C(=O)N[C@@H](C)C(N)=O | y
* CC(C)C[C@H](NC(=O)[C@@H](NC(=O)[C@H](C)NC(=O)[C@H](C)NC(=O)[C@H](C)NC(=O)[C@@H](NC(=O)[C@H](CC1CCCCC1)NC(=O)[C@H](CCCCN)NC(=O)[C@@H](C)N)C(C)C)[C@@H](C)O)C(=O)N[C@@H](CCCCN)C(=O)N[C@@H](C)C(=O)N[C@@H](C)C(=O)N[C@H](C)C(N)=O | n
* CC(C)C[C@H](NC(=O)[C@@H](NC(=O)[C@H](Cc1c[nH]c2ccccc12)NC(=O)[C@H](C)NC(=O)[C@H](C)NC(=O)[C@@H](NC(=O)[C@H](CC1CCCCC1)NC(=O)[C@H](CCCCN)NC(=O)[C@@H](C)N)C(C)C)[C@@H](C)O)C(=O)N[C@@H](CCCCN)C(=O)N[C@@H](C)C(=O)N[C@@H](C)C(=O)N[C@H](C)C(N)=O | y

Next compound, please.
Asked: Textbook exercise: given the entry `CC(C)C[C@H](NC(=O)[C@@H](NC(=O)[C@H](Cc1c[nH]cn1)NC(=O)[C@H](C)NC(=O)[C@H](C)NC(=O)[C@@H](NC(=O)[C@H](CC1CCCCC1)NC(=O)[C@H](CCCCN)NC(=O)[C@@H](C)N)C(C)C)[C@@H](C)O)C(=O)N[C@@H](CCCCN)C(=O)N[C@@H](C)C(=O)N[C@@H](C)C(=O)N[C@H](C)C(N)=O` , state whether its X349 S.I. is greater than or equal to 2.
Given back: y

These entries and their values trace back to patent US20050049197A1.
